system: crabgrass; assay: Test A pre-/postemergence greenhouse test; type: in vivo, Digitaria sanguinalis; conditions: Preemergence, 500 g ai/ha; 0 to 100 scale where 0 is no effect and 100 is complete control
Reported Property: Plant response rating, Crabgrass, Large
Write the number on its own, no unit after it.

Worked cases, answers included:
compound="Cn1nc(C(F)(F)F)c(C[S+]([O-])c2cccc[n+]2[O-])c1Cl (stereo not shown) [Compound 8]" assay_result=100
compound="Cn1nc(C(F)(F)F)c(CS(=O)(=O)c2ccc(Cl)c[n+]2[O-])c1OCC(F)(F)C(F)(F)F [Compound 97]" assay_result=70
compound="Cn1nc(C(F)(F)F)c(CS(=O)(=O)c2ccc(Cl)c[n+]2[O-])c1OC(F)F [Compound 7]" assay_result=90

Would you kindly look at the next entry?
[Q] Item under review: Cn1nc(C(F)(F)F)c(C[S+]([O-])c2cc(C(F)(F)F)cc[n+]2[O-])c1Cl (racemic) [Compound 34] . Reported Plant response rating, Crabgrass, Large?
[A] 70

These entries and their values trace back to patent US20100298141A1.
